biological target: Serine/threonine-protein phosphatase 5 (Homo sapiens) (UniProt P53041); assay: PP5 phosphatase inhibitors, OMFP cleavage, confirmation, biochemical, fluorescence, round 5, powder samples (AID 624434); details: purified PP5c, OMFP dephosphorylation, at 50 µM, hits give high values
Sequence (P53041 whole entry, looked up): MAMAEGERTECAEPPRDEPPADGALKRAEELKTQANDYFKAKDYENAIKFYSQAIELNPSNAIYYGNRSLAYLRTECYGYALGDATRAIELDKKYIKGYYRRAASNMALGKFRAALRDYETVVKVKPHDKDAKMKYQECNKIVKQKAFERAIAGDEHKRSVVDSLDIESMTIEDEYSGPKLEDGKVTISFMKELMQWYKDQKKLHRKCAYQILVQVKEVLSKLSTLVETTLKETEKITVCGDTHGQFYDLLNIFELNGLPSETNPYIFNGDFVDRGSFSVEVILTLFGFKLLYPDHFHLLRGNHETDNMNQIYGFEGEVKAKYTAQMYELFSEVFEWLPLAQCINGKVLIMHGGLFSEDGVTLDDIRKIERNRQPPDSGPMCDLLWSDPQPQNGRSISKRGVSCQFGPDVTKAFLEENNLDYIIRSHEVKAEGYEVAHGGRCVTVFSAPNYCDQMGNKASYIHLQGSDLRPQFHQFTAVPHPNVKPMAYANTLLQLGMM
Recorded inhibition values for a group of compounds are listed next.

# smiles_code, tgt, inhibition (%)
records = [
    ("Cc1ccccc1-c1n[nH]nc1C(=O)O", "Serine/threonine-protein phosphatase 5 (Homo sapiens) (UniProt P53041)", 69.3),
    ("O=C(O)c1n[nH]nc1-c1cccc(F)c1", "Serine/threonine-protein phosphatase 5 (Homo sapiens) (UniProt P53041)", 70.5),
    ("COc1cccc(-c2n[nH]nc2C(=O)O)c1", "Serine/threonine-protein phosphatase 5 (Homo sapiens) (UniProt P53041)", 77.6),
    ("CN(C)C(=O)c1n[nH]nc1-c1ccccc1", "Serine/threonine-protein phosphatase 5 (Homo sapiens) (UniProt P53041)", 0.413),
    ("CCc1ccccc1-c1n[nH]nc1C(=O)O", "Serine/threonine-protein phosphatase 5 (Homo sapiens) (UniProt P53041)", 62.5),
    ("COc1ccccc1-c1n[nH]nc1C(=O)O", "Serine/threonine-protein phosphatase 5 (Homo sapiens) (UniProt P53041)", 83.4),
    ("N#Cc1n[nH]nc1-c1ccccc1", "Serine/threonine-protein phosphatase 5 (Homo sapiens) (UniProt P53041)", 2.79),
    ("O=C(O)c1n[nH]nc1-c1ccccc1F", "Serine/threonine-protein phosphatase 5 (Homo sapiens) (UniProt P53041)", 81.1),
    ("CC(C)c1ccccc1-c1n[nH]nc1C(=O)O", "Serine/threonine-protein phosphatase 5 (Homo sapiens) (UniProt P53041)", 47.4),
    ("O=C(O)c1n[nH]nc1-c1ccccn1", "Serine/threonine-protein phosphatase 5 (Homo sapiens) (UniProt P53041)", 46.8),
    ("COc1ccc(-c2n[nH]nc2C(=O)O)cc1", "Serine/threonine-protein phosphatase 5 (Homo sapiens) (UniProt P53041)", 70),
]

Values were extracted from PubChem BioAssay AID624434.
